These data points were gathered from ChEMBL document CHEMBL3352173.

Assay method text: Clearance in rat at 10 mg/kg, iv
Type: ADME, organism-based
Parameters: dose 10 mg/kg, route intravenous
Condition notes: in vivo
Exam item: assign condition met to entries whose clearance is below 30 mL/min/kg and condition not met to entries at or above 30 mL/min/kg. Note that a value of exactly 30 mL/min/kg receives condition not met.

- COc1cc(OC)nc(-c2nc(N3CC[C@@H](NC(=O)c4[nH]c(C)c(Cl)c4Cl)[C@@H](OC)C3)sc2C(=O)O)n1: condition met
- CO[C@H]1CN(c2nc(C(F)F)c(C(=O)O)s2)CC[C@H]1NC(=O)c1[nH]c(C)c(Cl)c1Cl: condition not met
- CO[C@H]1CN(c2nc(-c3ncccn3)c(C(=O)O)s2)CC[C@H]1NC(=O)c1[nH]c(C)c(Cl)c1Cl: condition not met
- COCC(COC)NC(=O)c1nc(N2CC[C@@H](NC(=O)c3[nH]c(C)c(Cl)c3Cl)[C@@H](OC)C2)sc1C(=O)O: condition met
- CO[C@H]1CN(c2nc(-c3nc(C)no3)c(C(=O)O)s2)CC[C@H]1NC(=O)c1[nH]c(C)c(Cl)c1Cl: condition not met

[in] Lab log: compare recorded clearance with 30 mL/min/kg; is it strictly lower for `CO[C@H]1CN(c2nc(-c3cncc(OCCN(C)C)n3)c(C(=O)O)s2)CC[C@H]1NC(=O)c1[nH]c(C)c(Cl)c1Cl` ?
[out] condition met

[in] API: query returns whether the compound falls strictly under 30 mL/min/kg in clearance. Query: CO[C@H]1CN(c2nc(CN3CCOCC3)c(C(=O)O)s2)CC[C@H]1NC(=O)c1[nH]c(C)c(Cl)c1Cl (racemic)
[out] condition met

[in] clearance under 30 mL/min/kg? Item: `CO[C@H]1CN(c2nc(C(=O)NCC3OCCO3)c(C(=O)O)s2)CC[C@H]1NC(=O)c1[nH]c(C)c(Cl)c1Cl`
[out] condition not met

[in] I'd appreciate it if you could check whether `CO[C@H]1CN(c2nc(C(=O)NCC3(C)OCCO3)c(C(=O)O)s2)CC[C@H]1NC(=O)c1[nH]c(C)c(Cl)c1Cl` has clearance smaller than 30 mL/min/kg.
[out] condition not met

[in] Item `CO[C@H]1CN(c2nc(C)c(C(=O)O)s2)CC[C@H]1NC(=O)c1[nH]c(C)c(Cl)c1Cl` : clearance beneath 30 mL/min/kg, strictly?
[out] condition met

[in] Record `COCC(COC)(COC)NC(=O)c1nc(N2CC[C@@H](NC(=O)c3[nH]c(C)c(Cl)c3Cl)[C@@H](OC)C2)sc1C(=O)O` : is its clearance strictly below 30 mL/min/kg?
[out] condition met

[in] Strictly below 30 mL/min/kg in clearance? `COCn1ccnc1-c1nc(N2CC[C@@H](NC(=O)c3[nH]c(C)c(Cl)c3Cl)[C@@H](OC)C2)sc1C(=O)O`
[out] condition met

[in] For `COCCNC(=O)c1nc(N2CC[C@@H](NC(=O)c3[nH]c(C)c(Cl)c3Cl)[C@@H](OC)C2)sc1C(=O)O` , is the recorded clearance below the cut-off of 30 mL/min/kg?
[out] condition met

[in] Would you kindly verify if clearance of `COc1ccnc(-c2nc(N3CC[C@@H](NC(=O)c4[nH]c(C)c(Cl)c4Cl)[C@@H](OC)C3)sc2C(=O)O)n1` is strictly less than 30 mL/min/kg?
[out] condition met

[in] Item `CO[C@H]1CN(c2nc(C(=O)NC3COC(C)(C)OC3)c(C(=O)O)s2)CC[C@H]1NC(=O)c1[nH]c(C)c(Cl)c1Cl` : clearance beneath 30 mL/min/kg, strictly?
[out] condition not met

[in] Record `CO[C@H]1CN(c2nc3cccc(C(=O)O)c3s2)CC[C@H]1NC(=O)c1[nH]c(C)c(Cl)c1Cl` : is its clearance strictly below 30 mL/min/kg?
[out] condition not met

[in] Consider the compound COC[C@H](C)NC(=O)c1nc(N2CC[C@@H](NC(=O)c3[nH]c(C)c(Cl)c3Cl)[C@@H](OC)C2)sc1C(=O)O [AZD-5099] . Is its clearance strictly less than 30 mL/min/kg?
[out] condition met

[in] Is 30 mL/min/kg strictly greater than the compound's reported clearance? compound: `CO[C@H]1CN(c2nc(C(=O)NC[C@H](C)OC)c(C(=O)O)s2)CC[C@H]1NC(=O)c1[nH]c(C)c(Cl)c1Cl`
[out] condition met

[in] Please indicate whether the reported clearance of `CO[C@H]1CN(c2ncc(C(=O)O)s2)CC[C@H]1NC(=O)c1[nH]c(C)c(Cl)c1Cl` is strictly below 30 mL/min/kg.
[out] condition not met

[in] Given the entry `CO[C@H]1CN(c2nc(-c3ncnn3C)c(C(=O)O)s2)CC[C@H]1NC(=O)c1[nH]c(C)c(Cl)c1Cl` , would its reported clearance be below 30 mL/min/kg?
[out] condition met
